Tested on: HCT-116
experiment description: Cytotoxicity against human HCT116 cells assessed as cell growth inhibition at 50 uM after 48 hrs by sulphorhodamine B assay
Format: functional
recorded conditions: HCT-116, 48 h, read-out: GI
measured metric: inhibition of growth at 50 µM (%)

>>> result("C#CCNC[C@@H]1C(=O)O[C@H]2[C@H]1CCC(C)=C1C[C@H]3O[C@@]3(C)[C@@H]12")
4
>>> result("CC1=C2C[C@H]3O[C@@]3(C)[C@@H]2[C@H]2OC(=O)[C@@H](Cn3nc4ccccc4n3)[C@@H]2CC1")
13
>>> result("C=C1C(=O)O[C@H]2[C@H]1CCC(C)=C1C[C@H]3O[C@@]3(C)[C@@H]12")
97
>>> result("CC1=C2C[C@H]3O[C@@]3(C)[C@@H]2[C@H]2OC(=O)[C@@H](Cn3cnc([N+](=O)[O-])c3)[C@@H]2CC1")
30

---

Test system: A549
experiment description: Cytotoxicity against human A549 cells assessed as cell growth inhibition at 50 uM after 48 hrs by sulphorhodamine B assay
Assay type: functional
recorded conditions: A549, 48 h, read-out: GI
Documented inhibition of growth at 50 µM across a set of compounds
measured metric: inhibition of growth at 50 µM (%)

>>> result("CNC[C@@H]1C(=O)O[C@H]2[C@H]1CCC(C)=C1C[C@H]3O[C@@]3(C)[C@@H]12")
10
>>> result("CC1=C2C[C@H]3O[C@@]3(C)[C@@H]2[C@H]2OC(=O)[C@@H](Cn3nc4ccccc4n3)[C@@H]2CC1")
25
>>> result("CC1=C2C[C@H]3O[C@@]3(C)[C@@H]2[C@H]2OC(=O)[C@@H](CN3CCCCC3)[C@@H]2CC1")
87
>>> result("C=C1C(=O)O[C@H]2[C@H]1CCC(C)=C1C[C@H]3O[C@@]3(C)[C@@H]12")
97
>>> result("C#CCNC[C@@H]1C(=O)O[C@H]2[C@H]1CCC(C)=C1C[C@H]3O[C@@]3(C)[C@@H]12")
36
>>> result("CC1=C2C[C@H]3O[C@@]3(C)[C@@H]2[C@H]2OC(=O)[C@@H](Cn3cncn3)[C@@H]2CC1")
69
>>> result("CC1=C2C[C@H]3O[C@@]3(C)[C@@H]2[C@H]2OC(=O)[C@@H](Cn3cnc([N+](=O)[O-])c3)[C@@H]2CC1")
0

---

System: HCT-116
experiment description: Cytotoxicity against human HCT116 cells assessed as cell growth inhibition at 50 uM after 48 hrs by sulphorhodamine B assay
Assay type: functional
recorded conditions: HCT-116, 48 h, read-out: GI
measured metric: inhibition of growth at 50 µM (%)

>>> result("CCN(CC)C[C@@H]1C(=O)O[C@H]2[C@H]1CCC(C)=C1C[C@H]3O[C@@]3(C)[C@@H]12")
95
>>> result("CNC[C@@H]1C(=O)O[C@H]2[C@H]1CCC(C)=C1C[C@H]3O[C@@]3(C)[C@@H]12")
16
>>> result("CC1=C2C[C@H]3O[C@@]3(C)[C@@H]2[C@H]2OC(=O)[C@@H](CN3CCCC3)[C@@H]2CC1")
15
>>> result("CC1=C2C[C@H]3O[C@@]3(C)[C@@H]2[C@H]2OC(=O)[C@@H](Cn3ncc4ccc([N+](=O)[O-])cc43)[C@@H]2CC1")
86
>>> result("CCCNC[C@@H]1C(=O)O[C@H]2[C@H]1CCC(C)=C1C[C@H]3O[C@@]3(C)[C@@H]12")
2
>>> result("CCCCNC[C@@H]1C(=O)O[C@H]2[C@H]1CCC(C)=C1C[C@H]3O[C@@]3(C)[C@@H]12")
4
>>> result("CC1=C2C[C@H]3O[C@@]3(C)[C@@H]2[C@H]2OC(=O)[C@@H](Cn3ccnc3)[C@@H]2CC1")
42
>>> result("CC1=C2C[C@H]3O[C@@]3(C)[C@@H]2[C@H]2OC(=O)[C@@H](CN3CCCCC3)[C@@H]2CC1")
90
>>> result("CCNC[C@@H]1C(=O)O[C@H]2[C@H]1CCC(C)=C1C[C@H]3O[C@@]3(C)[C@@H]12")
36
>>> result("CC1=C2C[C@H]3O[C@@]3(C)[C@@H]2[C@H]2OC(=O)[C@@H](CN3CCOCC3)[C@@H]2CC1")
58
>>> result("C=CCNC[C@@H]1C(=O)O[C@H]2[C@H]1CCC(C)=C1C[C@H]3O[C@@]3(C)[C@@H]12")
28
>>> result("CC1=C2C[C@H]3O[C@@]3(C)[C@@H]2[C@H]2OC(=O)[C@@H](CNCc3ccc(F)cc3)[C@@H]2CC1")
0
>>> result("CC1=C2C[C@H]3O[C@@]3(C)[C@@H]2[C@H]2OC(=O)[C@@H](Cn3ncc4cc([N+](=O)[O-])ccc43)[C@@H]2CC1")
57
>>> result("CC1=C2C[C@H]3O[C@@]3(C)[C@@H]2[C@H]2OC(=O)[C@@H](Cn3cncn3)[C@@H]2CC1")
70

Cited source: ChEMBL document CHEMBL2417520
